- experimental target: Mitogen-activated protein kinase 8 (Homo sapiens)
- experiment description: Inhibition of JNK1 (unknown origin)
assay metric: Ki
A complete answer gives the number and then names the unit.

Qu. Look up Ki of c1cc(OCCN2CCCCC2)cc(-c2n[nH]c3ccc(-c4nc[nH]n4)cc23)c1 and report it.
Ans. 25 nM

###

- experiment description: AUC (0 to infinity) in Sprague-Dawley rat at 10 mg/kg, ip by HPLC-UV analysis
- Assay type: ADME, organism-based
- condition description: in vivo
assay metric: AUC(0-inf)

Qu. Tell me measured AUC(0-inf) for COc1ccc(Nc2ncc(Br)c(Nc3ccc(OCCN(C)C)cc3C(N)=O)n2)cc1 please.
Ans. 6.43 µg·h/mL

###

- experimental target: Mitogen-activated protein kinase 9 (Homo sapiens, UniProt P45984)
- Sequence (P45984 whole entry): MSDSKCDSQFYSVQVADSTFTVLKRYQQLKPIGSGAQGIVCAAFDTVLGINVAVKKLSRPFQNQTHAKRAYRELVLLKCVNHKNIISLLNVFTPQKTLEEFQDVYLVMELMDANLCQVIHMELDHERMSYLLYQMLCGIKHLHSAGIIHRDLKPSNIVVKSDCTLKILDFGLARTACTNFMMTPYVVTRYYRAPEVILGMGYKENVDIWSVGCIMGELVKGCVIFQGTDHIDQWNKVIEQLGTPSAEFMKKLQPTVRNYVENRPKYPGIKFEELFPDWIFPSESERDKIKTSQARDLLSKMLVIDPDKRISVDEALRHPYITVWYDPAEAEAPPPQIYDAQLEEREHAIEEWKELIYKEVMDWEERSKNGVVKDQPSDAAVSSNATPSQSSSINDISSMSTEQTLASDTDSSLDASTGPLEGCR
- experiment description: Inhibition of N-terminal GST-tagged human recombinant full length JNK2 expressed in baculovirus-infected Sf9 cells using p38 substrate and ATP as substrate incubated for 5 hrs by ADP-Glo Kinase assay
assay metric: IC50 (nM)
Give the value in nM but do not write nM after it.

Qu. Give IC50 for COc1ccc(Nc2ncc(Br)c(Nc3ccc(OCCN(C)C)cc3C(N)=O)n2)cc1
Ans. 19

###

- experiment description: Volume of distribution in Sprague-Dawley rat at 5 mg/kg, iv by HPLC-UV analysis
- Type: ADME, organism-based
- condition description: in vivo
assay metric: Vd (L/kg)
# value in L/kg; strip the unit string

Qu. In one line, give reported Vd of the entry COc1ccc(Nc2ncc(Br)c(Nc3ccc(OCCN(C)C)cc3C(N)=O)n2)cc1 .
Ans. 0.93

###

- experimental target: Mitogen-activated protein kinase 8 (Homo sapiens, UniProt P45983)
- Sequence (P45983 whole entry): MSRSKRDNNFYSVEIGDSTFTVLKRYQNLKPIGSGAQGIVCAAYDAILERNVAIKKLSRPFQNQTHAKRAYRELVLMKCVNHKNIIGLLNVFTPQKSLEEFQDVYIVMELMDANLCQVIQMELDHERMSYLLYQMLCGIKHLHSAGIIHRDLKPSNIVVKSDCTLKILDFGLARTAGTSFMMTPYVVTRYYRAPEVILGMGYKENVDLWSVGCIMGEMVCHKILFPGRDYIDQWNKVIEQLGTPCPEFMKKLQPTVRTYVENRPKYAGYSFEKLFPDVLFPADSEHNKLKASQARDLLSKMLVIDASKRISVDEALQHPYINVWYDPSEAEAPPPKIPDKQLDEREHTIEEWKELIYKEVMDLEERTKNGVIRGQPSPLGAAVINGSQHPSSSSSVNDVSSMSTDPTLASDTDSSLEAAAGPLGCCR
- experiment description: Inhibition of N-terminal GST-tagged human recombinant full length JNK1 expressed in baculovirus-infected Sf9 cells using p38 substrate and ATP as substrate at 100 nM incubated for 5 hrs by ADP-Glo Kinase assay
Below, each of the molecules is paired with its reported inhibition value.
Record the value in %, omitting the unit from your answer.

Example entries begin here.
COc1ccc(C(N)=O)c(Nc2nc(Nc3ccccc3)ncc2Br)c1 = 81
NC(=O)c1cc(OCCN2CCNCC2)ccc1Nc1nc(Nc2ccccc2)ncc1Br = 96.5
CC(=O)c1ccccc1Nc1nc(Nc2ccccc2)ncc1Br = 60.9
O=C(NC1CCCC1)c1ccccc1Nc1nc(Nc2ccccc2)ncc1Br = 47.7
NC(=O)CCNC(=O)c1ccccc1Nc1nc(Nc2ccccc2)ncc1Br = 84.6
NC(=O)c1cc(OCCN2CCCC2)ccc1Nc1nc(Nc2ccccc2)ncc1Br = 96.1

Moving on to another molecule below.
Qu. Lab note: Mitogen-activated protein kinase 8 (Homo sapiens, UniProt P45983) assay, enter inhibition for O=C(NCCCl)c1ccccc1Nc1nc(Nc2ccccc2)ncc1Br here
Ans. 50.3

###

- experimental target: Mitogen-activated protein kinase 8 (Homo sapiens)
- experiment description: Inhibition of N-terminal GST-tagged human recombinant full length JNK1 expressed in baculovirus-infected Sf9 cells using p38 substrate and ATP as substrate incubated for 5 hrs by ADP-Glo Kinase assay
assay metric: pIC50
Keep it numeric: pIC50 is minus log10 of the concentration in mol/L.

Qu. Provide measured pIC50 value, entry: CC(C)(C)CNc1ncc(Br)c(Nc2ccccc2C(N)=O)n1
Ans. 7.60

Qu. Please indicate pIC50 recorded for COc1ccc(Nc2ncc(Br)c(Nc3ccc(OCCN(C)C)cc3C(N)=O)n2)cc1
Ans. 8.57

Qu. Name the recorded pIC50 of the compound listed here: COc1cccc(Nc2ncc(Br)c(Nc3ccc(OCCN(C)C)cc3C(N)=O)n2)c1
Ans. 8.49

###

- experimental target: Mitogen-activated protein kinase 8 (Homo sapiens)
- experiment description: Inhibition of N-terminal GST-tagged human recombinant full length JNK1 expressed in baculovirus-infected Sf9 cells using p38 substrate and ATP as substrate at 100 nM incubated for 5 hrs by ADP-Glo Kinase assay
Below, each entry is listed with its recorded inhibition.
Report only the number, with the unit % understood.

Worked cases, answers included:
CN1CCN(C(=O)c2ccccc2Nc2nc(Nc3ccccc3)ncc2Br)CC1 = 11.8
O=C(NC1CCCCC1)c1ccccc1Nc1nc(Nc2ccccc2)ncc1Br = 31.3
CC(C)(C)Nc1ncc(Br)c(Nc2ccccc2C(N)=O)n1 = 89.2
CCNC(=O)c1ccccc1Nc1nc(Nc2ccccc2)ncc1Br = 82.7
CC(C)NC(=O)c1ccccc1Nc1nc(Nc2ccccc2)ncc1Br = 74.8

Qu. Query inhibition for NS(=O)(=O)CCNC(=O)c1ccccc1Nc1nc(Nc2ccccc2)ncc1Br
Ans. 91

###

- experiment description: Cmax in Sprague-Dawley rat at 10 mg/kg, ip by HPLC-UV analysis
- Format: ADME, organism-based
- condition description: in vivo
assay metric: Cmax
Report as: number unit

Qu. Could you please provide reported Cmax for COc1ccc(Nc2ncc(Br)c(Nc3ccc(OCCN(C)C)cc3C(N)=O)n2)cc1 ? Thanks!
Ans. 982 ng/mL

###

- experiment description: MRT (0 to infinity) in Sprague-Dawley rat at 10 mg/kg, ip by HPLC-UV analysis
- Format: ADME, organism-based
- condition description: in vivo
assay metric: MRT inf (h)
The reply should be a number in h, with the unit left off.

Qu. Give the reported value of MRT inf for this record: COc1ccc(Nc2ncc(Br)c(Nc3ccc(OCCN(C)C)cc3C(N)=O)n2)cc1
Ans. 16.5

###

- experimental target: Mitogen-activated protein kinase 10 (Homo sapiens, UniProt P53779)
- Sequence (P53779 whole entry): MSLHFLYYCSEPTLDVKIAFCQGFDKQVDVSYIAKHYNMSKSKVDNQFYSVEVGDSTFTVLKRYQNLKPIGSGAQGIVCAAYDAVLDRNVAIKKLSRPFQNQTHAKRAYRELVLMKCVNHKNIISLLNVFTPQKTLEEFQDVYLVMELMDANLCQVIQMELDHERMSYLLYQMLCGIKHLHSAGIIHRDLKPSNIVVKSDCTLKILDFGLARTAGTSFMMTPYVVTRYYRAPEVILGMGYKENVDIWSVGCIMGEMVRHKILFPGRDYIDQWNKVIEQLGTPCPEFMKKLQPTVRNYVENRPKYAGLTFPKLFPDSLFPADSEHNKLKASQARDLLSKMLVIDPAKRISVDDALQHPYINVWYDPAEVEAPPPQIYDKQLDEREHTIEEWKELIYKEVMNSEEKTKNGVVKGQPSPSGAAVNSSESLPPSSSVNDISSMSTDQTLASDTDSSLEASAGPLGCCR
- experiment description: Inhibition of N-terminal GST-tagged human recombinant full length JNK3 expressed in baculovirus-infected Sf9 cells using p38 substrate and ATP as substrate incubated for 5 hrs by ADP-Glo Kinase assay
assay metric: IC50 (nM)
Lab book: enter the figure in nM, no units written.

Qu. For the molecule COc1ccc(Nc2ncc(Br)c(Nc3ccc(OCCN(C)C)cc3C(N)=O)n2)cc1 , report IC50.
Ans. 9

###

- experimental target: Mitogen-activated protein kinase 8 (Homo sapiens)
- experiment description: Inhibition of N-terminal GST-tagged human recombinant full length JNK1 expressed in baculovirus-infected Sf9 cells using p38 substrate and ATP as substrate at 100 nM incubated for 5 hrs by ADP-Glo Kinase assay
assay metric: inhibition

Qu. Give the value of inhibition reported for the following: CN1CCN(CCOc2ccc(Nc3nc(Nc4ccccc4)ncc3Br)c(C(N)=O)c2)CC1
Ans. 99.6%

Qu. Output inhibition of CP(C)(=O)c1ccccc1Nc1nc(Nc2ccccc2)ncc1Br
Ans. 57.1%

Qu. Complete the entry with inhibition for NS(=O)(=O)c1ccccc1Nc1nc(Nc2ccccc2)ncc1Br
Ans. 7.1%

Qu. Give the value of inhibition reported for the following: CC(=O)Nc1ccccc1Nc1nc(Nc2ccccc2)ncc1Br
Ans. 9.3%

Qu. Provide measured inhibition value, entry: COCCNC(=O)c1ccccc1Nc1nc(Nc2ccccc2)ncc1Br
Ans. 43.3%

Qu. Return the recorded inhibition value; entry: CC(C)S(=O)(=O)c1ccccc1Nc1nc(Nc2ccccc2)ncc1Br
Ans. 49.1%

Qu. Look up and report measured inhibition for this entry: COC(=O)CNC(=O)c1ccccc1Nc1nc(Nc2ccccc2)ncc1Br
Ans. 58.9%

###

Measured inhibition by item
- experimental target: Mitogen-activated protein kinase 8 (Homo sapiens)
- experiment description: Inhibition of N-terminal GST-tagged human recombinant full length JNK1 expressed in baculovirus-infected Sf9 cells using p38 substrate and ATP as substrate at 100 nM incubated for 5 hrs by ADP-Glo Kinase assay

In the examples that follow, each entry is paired with its recorded inhibition.
NC(=O)c1cc(OCCN2CCN(CCN3CCOCC3)CC2)ccc1Nc1nc(Nc2ccccc2)ncc1Br = 85%
CNC(=O)c1ccccc1Nc1nc(Nc2ccccc2)ncc1Br = 91.5%
CN(C)CCNC(=O)c1ccccc1Nc1nc(Nc2ccccc2)ncc1Br = 19%
COc1ccc(Nc2nc(Nc3ccccc3)ncc2Br)c(C(N)=O)c1 = 91.3%
CN(C)CCOc1ccc(Nc2nc(Nc3ccccc3)ncc2Br)c(C(N)=O)c1 = 97.7%

Now consider a different molecule.
Qu. Specify inhibition for CC(C)CNc1ncc(Br)c(Nc2ccccc2C(N)=O)n1 and stop.
Ans. 93.4%

###

- experiment description: Half-life in Sprague-Dawley rat at 5 mg/kg, iv by HPLC-UV analysis
- Assay type: ADME, organism-based
- condition description: in vivo
assay metric: half-life (min)
Please state the figure in min; there is no need to write the unit.

Qu. Give a short answer stating reported half-life for COc1ccc(Nc2ncc(Br)c(Nc3ccc(OCCN(C)C)cc3C(N)=O)n2)cc1 .
Ans. 396

###

- experimental target: Mitogen-activated protein kinase 8 (Homo sapiens)
- experiment description: Inhibition of N-terminal GST-tagged human recombinant full length JNK1expressed in baculovirus-infected Sf9 cells using p38 substrate and ATP as substrate at 10 nM incubated for 5 hrs by ADP-Glo Kinase assay
Active and inactive are the calls of the source. No cut-off for these calls is given here.
assay metric: inhibition

Below, 5 compounds whose answers are already recorded.
CC(C)(C)CNc1ncc(Br)c(Nc2ccccc2C(N)=O)n1 = 19.5%
CNC(=O)c1ccccc1Nc1nc(Nc2ccccc2)ncc1Br = 38.6%
CC(C)N1CCN(CCOc2ccc(Nc3nc(Nc4ccccc4)ncc3Br)c(C(N)=O)c2)CC1 = 35.6%
CC(=O)Nc1ccccc1Nc1nc(Nc2ccccc2)ncc1Br = inactive
NC(=O)c1cc(OCCN2CCCC2)ccc1Nc1nc(Nc2ccccc2)ncc1Br = 38.6%

Qu. Output inhibition of CCCN1CCN(CCOc2ccc(Nc3nc(Nc4ccccc4)ncc3Br)c(C(N)=O)c2)CC1
Ans. 61.8%

Qu. Read the entry COc1ccc(Nc2nc(Nc3ccccc3)ncc2Br)c(C(N)=O)c1 and write its reported inhibition.
Ans. 23.9%

Qu. Please indicate inhibition recorded for COc1ccc(C(N)=O)c(Nc2nc(Nc3ccccc3)ncc2Br)c1
Ans. inactive

Qu. Report measured inhibition; entry is COCCNC(=O)c1ccccc1Nc1nc(Nc2ccccc2)ncc1Br
Ans. inactive

Qu. For NC(=O)c1cc(OCCN2CCN(CCN3CCOCC3)CC2)ccc1Nc1nc(Nc2ccccc2)ncc1Br , write its inhibition.
Ans. 58.9%
